Data origin, for the record: patent US11655238B2

Readings of MIC for the listed compounds
tested on: Mycobacterium bovis BCG strain; assay: microbe, parasite or virus in culture; format: cell-based; conditions: Mycobacterium tuberculosis variant bovis BCG, BCG, 168 h, read-out: MIC (μg/mL) Mycobacterium bovis BCG, BCG strain, 7H9 medium, 37° C., 168 hours, resazurin

# compound, system_under_test, units_label, censoring_qualifier, MIC
measured = [
    ("Cc1ccc(-n2nc(C(=O)NCCNC3C4CC5CC(C4)CC3C5)c(C)c2-c2ccc(Cl)cc2)c(C)c1 (centres unmarked) [Compound 77]", "Mycobacterium bovis BCG strain", "µg/mL", "=", 5.18),
    ("Cc1c(C(=O)NCCCCNC2C3CC4CC(C3)CC2C4)nn(-c2ccc(Cl)cc2Cl)c1-c1ccc(Cl)cc1 (centres unmarked) [Compound 19]", "Mycobacterium bovis BCG strain", "µg/mL", "=", 6.71),
    ("Cc1c(C(=O)NN2CCCCC2)nn(-c2ccc(Cl)cc2Cl)c1-c1ccc(Cl)cc1 [Rimonabant, rimonabant, reference compound]", "Mycobacterium bovis BCG strain", "µg/mL", "=", 34),
    ("Cc1c(CNCCNC2C3CC4CC(C3)CC2C4)nn(-c2ccc(Cl)cc2Cl)c1-c1ccc(Cl)cc1 (centres unmarked) [Compound 166]", "Mycobacterium bovis BCG strain", "µg/mL", "=", 7.62),
    ("Cc1c(CN(C)CCNC2C3CC4CC(C3)CC2C4)nn(-c2ccc(Cl)cc2Cl)c1-c1ccc(Cl)cc1 (centres unmarked) [Compound 165]", "Mycobacterium bovis BCG strain", "µg/mL", "=", 3.62),
    ("Cc1c(C(=O)NCCNC2C3CC4CC(C3)CC2C4)nn(-c2ccc(F)cc2F)c1-c1ccc(Cl)cc1 (centres unmarked) [Compound 76]", "Mycobacterium bovis BCG strain", "µg/mL", "=", 3.66),
    ("Cc1c(C(=O)N(C)CCNC2C3CC4CC(C3)CC2C4)nn(-c2ccc(Cl)cc2Cl)c1-c1ccc(Cl)cc1 (centres unmarked) [Compound 74]", "Mycobacterium bovis BCG strain", "µg/mL", "=", 3.35),
    ("Cc1c(C(=O)OC2CC3CCC2(C)C3(C)C)nn(-c2ccc(Cl)cc2Cl)c1-c1ccc(Cl)cc1 (centres unmarked) [Compound 171]", "Mycobacterium bovis BCG strain", "µg/mL", ">", 200),
    ("Cc1c(CNC(=O)NCC23CC4CC(CC(C4)C2)C3)nn(-c2ccc(Cl)cc2Cl)c1-c1ccc(Cl)cc1 [Compound 11]", "Mycobacterium bovis BCG strain", "µg/mL", ">", 134),
    ("Cc1c(C(=O)O[C@H]2C[C@@H]3CC[C@@]2(C)C3(C)C)nn(-c2ccc(Cl)cc2Cl)c1-c1ccc(Cl)cc1 [Compound 172]", "Mycobacterium bovis BCG strain", "µg/mL", ">", 338),
    ("Cc1c(C(=O)NCCNC23CC4CC(C)(CC(C)(C4)C2)C3)nn(-c2ccc(Cl)cc2Cl)c1-c1ccc(Cl)cc1 [Compound 23]", "Mycobacterium bovis BCG strain", "µg/mL", "=", 3.66),
    ("Cc1c(CNCCCCNC2C3CC4CC(C3)CC2C4)nn(-c2ccc(Cl)cc2Cl)c1-c1ccc(Cl)cc1 (centres unmarked) [Compound 167]", "Mycobacterium bovis BCG strain", "µg/mL", "=", 1.05),
    ("Cc1c(CNCCCNC2C3CC4CC(C3)CC2C4)nn(-c2ccc(Cl)cc2Cl)c1-c1ccc(Cl)cc1 (centres unmarked) [Compound 164]", "Mycobacterium bovis BCG strain", "µg/mL", "=", 3.24),
    ("Cc1c(CNS(=O)(=O)CCNC23CC4CC(C)(CC(C)(C4)C2)C3)nn(-c2ccc(Cl)cc2Cl)c1-c1ccc(Cl)cc1 [Compound 168]", "Mycobacterium bovis BCG strain", "µg/mL", "=", 21.3),
]
